ASSAY_NAME: in vivo
EXPERIMENTAL_PARAMETERS: Domestic Shorthair, topical or ocular
MEASUREMENT_KIND: half-life (days)

molecule="CC(C)C[C@H]1C(=O)O[C@H](Cc2ccc(N3CCOCC3)cc2)C(=O)N(C)[C@@H](CC(C)C)C(=O)O[C@H](C)C(=O)N(C)[C@@H](CC(C)C)C(=O)O[C@H](Cc2ccc(N3CCOCC3)cc2)C(=O)N(C)[C@@H](CC(C)C)C(=O)O[C@H](C)C(=O)N1C [Emodepside, emodepside]" reading=14.5

###

ASSAY_NAME: in vivo
EXPERIMENTAL_PARAMETERS: in vivo, iv, 0.2 mg/kg
MEASUREMENT_KIND: clearance

compound="CC(C)C[C@H]1C(=O)O[C@H](Cc2ccc(N3CCOCC3)cc2)C(=O)N(C)[C@@H](CC(C)C)C(=O)O[C@H](C)C(=O)N(C)[C@@H](CC(C)C)C(=O)O[C@H](Cc2ccc(N3CCOCC3)cc2)C(=O)N(C)[C@@H](CC(C)C)C(=O)O[C@H](C)C(=O)N1C [Emodepside, emodepside]" reading="2.18 mL/min/kg"

###

ASSAY_NAME: in vivo
EXPERIMENTAL_PARAMETERS: Domestic Shorthair, in vivo, iv, 0.2 mg/kg
MEASUREMENT_KIND: AUC(0-inf) (ng·h/mL)

compound="CC(C)C[C@H]1C(=O)O[C@H](Cc2ccc(N3CCOCC3)cc2)C(=O)N(C)[C@@H](CC(C)C)C(=O)O[C@H](C)C(=O)N(C)[C@@H](CC(C)C)C(=O)O[C@H](Cc2ccc(N3CCOCC3)cc2)C(=O)N(C)[C@@H](CC(C)C)C(=O)O[C@H](C)C(=O)N1C [Emodepside, emodepside]" endpoint_unit=ng·h/mL reading=1600

Ref: paper PMC10344656
